Tested on: Iron deficient Diet (IDD) induced anaemia in rats
measurement-protocol: IL-6 level in IDD induced anaemia in rats
Format: in vivo, male Wistar rats (Rat Rattus)
test-settings: Day 98; IDD rats
# IL-6 % Change compared to Disease control per record follows
# output: bare number, implied unit %

Examples from the recorded data:
Nc1nc2c(ncn2[C@@H]2O[C@H](COP(=O)(O)OP(=O)(O)OP(=O)(O)O)[C@@H](O)[C@H]2O)c(=O)[nH]1 [GTP, Guanosine triphosphate] ... −0.2
Nc1nc2c(ncn2[C@@H]2O[C@H](COP(=O)([O-])[O-])[C@@H](O)[C@H]2O)c(=O)[nH]1.[Na+].[Na+] [Disodium GMP, Disodium Guanosine 5-Monophosphate] ... 0.9
Nc1nc2c(ncn2[C@@H]2O[C@H](COP(=O)(O)OP(=O)(O)O)[C@@H](O)[C@H]2O)c(=O)[nH]1 [GDP, Guanosine diphosphate] ... −0.3

Next:
**Q:** Fill in: IL-6 % Change compared to Disease control of O=S(=O)([O-])[O-].[Fe+2] [FeSO4, ferrous sulphate, reference compound] is ___
**A:** −3.2

// provenance: patent US12016906B2
